test target: Myosin Light Chain Kinase
assay comment: Inhibition of myosin light chain kinase (selectivity test)
condition parameters: Table 2; Myosin Light Chain Kinase; read-out: Inhibition of the Protein Kinases IC50: MLC Kinase
endpoint label: IC50 (µM)

1. Cn1cc(C2=C(c3cn(CCCNC(=O)CCN)c4ccccc34)C(=O)NC2=O)c2ccccc21 :: 2.4

(a) Cn1cc(C2=C(c3cn(CCCN)c4ccccc34)C(=O)NC2=O)c2ccccc21 [A, reference compound]
(b) Cn1cc(C2=C(c3cn(CCCNC(=O)[C@@H](N)CO)c4ccccc34)C(=O)NC2=O)c2ccccc21
// query Among a and b , which shows a numerically higher IC50 result? Refer to your chosen entry by its label in the reply.
// result b
(b: 4.6 µM, a: 1.3 µM)

* * *

test target: protein kinase C (PKC)
assay comment: Enzyme test PKC with peptide substrate [Ser^25] PKC (19-31), phosphorus^32 phosphate incorporation
Assay type: biochemical, rat
condition parameters: Table 1; PKC purified from rat brain, 10 μM ATP, pH 7.5, 30° C., 5 minutes; read-out: Inhibition IC50, Enzyme Test PKC With Peptide Substrate [Ser^25] PKC (19-31)
endpoint label: IC50 (nM)

1. C[C@H](N)C(=O)NCCCCCCCCn1cc(C2=C(c3cn(C)c4ccccc34)C(=O)NC2=O)c2ccccc21 [Example 2f] :: 330
2. Cn1cc(C2=C(c3cn(CCCCNC(=O)[C@@H](N)CCCNC(=N)N)c4ccccc34)C(=O)NC2=O)c2ccccc21 [Example 2b] :: 220
3. C[C@H](N)C(=O)NCCCCCn1c2ccccc2c2c3c(c4c5ccccc5n(C)c4c21)C(=O)NC3=O [Example 10a] :: 53
4. C[C@H](N)C(=O)NCCCCn1cc(C2=C(c3cn(C)c4ccccc34)C(=O)NC2=O)c2ccccc21 [Example 2a] :: 25
5. C[C@H](N)C(=O)NCC(=O)NCCCn1cc(C2=C(c3cn(C)c4ccccc34)C(=O)NC2=O)c2ccccc21 [Example 4] :: 36
6. Cn1cc(C2=C(c3cn(CCCNC(=O)CCN)c4ccccc34)C(=O)NC2=O)c2ccccc21 [Example 1b] :: 23

(P) C[C@H](N)C(=O)NCCCCn1c2ccccc2c2c3c(c4c5ccccc5n(C)c4c21)C(=O)NC3=O [Example 10]
(Q) Cn1cc(C2=C(c3cn(CCC(=O)NCC(=O)NCC(=O)N[C@@H](CO)C(N)=O)c4ccccc34)C(=O)NC2=O)c2ccccc21 [Example 7c]
// query Could you tell me which of P and Q has the lower IC50 reading? Refer to your chosen entry by its label in the reply.
// result P

* * *

test target: protein kinase C (PKC)
assay comment: Enzyme test PKC with peptide substrate [Ser^25] PKC (19-31), phosphorus^32 phosphate incorporation
Type: biochemical, rat
condition parameters: Table 2; PKC with peptide substrate [Ser^25] PKC (19-31); read-out: Inhibition of the Protein Kinases IC50: PKC
endpoint label: IC50 (nM)

(P) Cn1cc(C2=C(c3cn(CCCNC(=O)[C@@H](N)CO)c4ccccc34)C(=O)NC2=O)c2ccccc21
(Q) Cn1cc(C2=C(c3cn(CCCN)c4ccccc34)C(=O)NC2=O)c2ccccc21 [A, reference compound]
(R) Cn1cc(C2=C(c3cn(CCCNC(=O)CCN)c4ccccc34)C(=O)NC2=O)c2ccccc21
// query Output the listed items in decreasing order of IC50. A complete answer lists every label in the requested sequence.
// result Q, R, P

* * *

test target: protein kinase C (PKC)
assay comment: Enzyme test PKC with peptide substrate [Ser^25] PKC (19-31), phosphorus^32 phosphate incorporation
Type: biochemical, rat
condition parameters: Table 1; PKC purified from rat brain, 10 μM ATP, pH 7.5, 30° C., 5 minutes; read-out: Inhibition IC50, Enzyme Test PKC With Peptide Substrate [Ser^25] PKC (19-31)
endpoint label: IC50 (nM)

1) C[C@@H](N)C(=O)NCCCn1cc(C2=C(c3cn(C)c4ccccc34)C(=O)NC2=O)c2ccccc21 [Example 2] :: 28
2) Cn1cc(C2=C(c3cn(CCCNC(=O)CCCCNC(=O)[C@@H](N)CO)c4ccccc34)C(=O)NC2=O)c2ccccc21 [Example 3] :: 61
3) C[C@H](NC(=O)CCn1cc(C2=C(c3cn(C)c4ccccc34)C(=O)NC2=O)c2ccccc21)C(=O)O [Example 5] :: 580
4) Cn1cc(C2=C(c3cn(CCCNC(=O)[C@@H](N)CO)c4ccccc34)C(=O)NC2=O)c2ccccc21 [Example 1] :: 14

(I) C[C@H](N)C(=O)NCCCn1c2ccccc2c2c3c(c4c5ccccc5n(C)c4c21)C(=O)NC3=O [Example 8]
(II) C[C@H](N)C(=O)NCCC(=O)NCCCn1cc(C2=C(c3cn(C)c4ccccc34)C(=O)NC2=O)c2ccccc21 [Example 4a]
(III) C[C@H](NC(=O)CCn1cc(C2=C(c3cn(C)c4ccccc34)C(=O)NC2=O)c2ccccc21)C(=O)NCC(=O)N[C@@H](CCCCN)C(N)=O [Example 7]
// query Hey, can you sort those compounds up there by IC50, smallest first? A complete answer lists every label in the requested sequence.
// result II, I, III
(II: 18 nM, I: 38 nM, III: 230 nM)

* * *

test target: protein kinase C (PKC)
assay comment: Enzyme test PKC with peptide substrate [Ser^25] PKC (19-31), phosphorus^32 phosphate incorporation
Format: biochemical, rat
condition parameters: Table 1; PKC purified from rat brain, 10 μM ATP, pH 7.5, 30° C., 5 minutes; read-out: Inhibition IC50, Enzyme Test PKC With Peptide Substrate [Ser^25] PKC (19-31)
Listing: IC50 of selected compounds

1) C[C@H](N)C(=O)NCCCCCCCCCn1cc(C2=C(c3cn(C)c4ccccc34)C(=O)NC2=O)c2ccccc21 :: > 1 µM

// query Entry C[C@H](NC(=O)CNC(=O)CNC(=O)CCn1cc(C2=C(c3cn(C)c4ccccc34)C(=O)NC2=O)c2ccccc21)C(N)=O , system protein kinase C (PKC): what IC50 was measured?
// result > 0.1 µM

// query Entry Cn1cc(C2=C(c3cn(CCCCCCCCCNC(=O)[C@@H](N)CO)c4ccccc34)C(=O)NC2=O)c2ccccc21 , system protein kinase C (PKC): what IC50 was measured?
// result > 1 µM

* * *

Listing: pIC50 of selected compounds
test target: protein kinase C (PKC)
assay comment: Enzyme test PKC with peptide substrate [Ser^25] PKC (19-31), phosphorus^32 phosphate incorporation
Format: biochemical, rat
condition parameters: Table 1; PKC purified from rat brain, 10 μM ATP, pH 7.5, 30° C., 5 minutes; read-out: Inhibition IC50, Enzyme Test PKC With Peptide Substrate [Ser^25] PKC (19-31)
pIC50: −log10 of the molar value. Where a SMILES comes first, the peptide text is derived from it. The star is where a group is joined. X1 = Cn1cc(C2=C(c3cn(CCC(=O)*)c4ccccc34)C(=O)NC2=O)c2ccccc21

1. C[C@H](N)C(=O)NCCCCCn1cc(C2=C(c3cn(C)c4ccccc34)C(=O)NC2=O)c2ccccc21 :: < 7.00
2. C[C@H](NC(=O)CNC(=O)[C@H](CO)NC(=O)CCn1cc(C2=C(c3cn(C)c4ccccc34)C(=O)NC2=O)c2ccccc21)C(N)=O :: < 6.00

For the next question, use this compound.
// query Entry C[C@H](NC(=O)[C@H](Cc1ccccc1)NC(=O)[C@H](CCCNC(=N)N)NC(=O)[C@H](CC(N)=O)NC(=O)[C@H](CCCCN)NC(=O)CCn1cc(C2=C(c3cn(C)c4ccccc34)C(=O)NC2=O)c2ccccc21)C(N)=O [Example 7a] (X1-KNRFA-NH2) , system protein kinase C (PKC): what pIC50 was measured?
// result < 7.00
